Documented pKi across a set of compounds
Molecular target: D2 (Homo sapiens (Human), UniProt P14416)
Sequence (P14416 whole entry): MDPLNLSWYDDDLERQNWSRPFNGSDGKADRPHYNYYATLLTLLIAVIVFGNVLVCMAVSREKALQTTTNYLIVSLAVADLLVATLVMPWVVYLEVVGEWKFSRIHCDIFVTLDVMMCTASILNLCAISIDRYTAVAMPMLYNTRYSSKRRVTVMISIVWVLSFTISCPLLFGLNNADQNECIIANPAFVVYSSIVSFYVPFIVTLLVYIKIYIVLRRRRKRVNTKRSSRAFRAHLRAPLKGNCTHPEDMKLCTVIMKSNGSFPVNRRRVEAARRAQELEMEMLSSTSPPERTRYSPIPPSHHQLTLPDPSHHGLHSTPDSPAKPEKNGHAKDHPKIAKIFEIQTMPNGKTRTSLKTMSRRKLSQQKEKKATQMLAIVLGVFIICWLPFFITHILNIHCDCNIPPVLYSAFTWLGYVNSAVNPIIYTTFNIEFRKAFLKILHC
Assay: D2 radioligand binding assay
pKi: −log10 of the molar value.

>  <compound>
CC1(C(=O)NC(c2ccc(F)cc2)c2ccccn2)CCN(CCOc2ccccc2)CC1 (single isomer, unassigned) [Compound 69b]

>  <pKi>
6.00 to 7.00

$$$$
>  <compound>
COc1cccc(C(c2ccccn2)N(C)CC2CCN(CCOc3ccccc3F)CC2)c1 (single isomer, unassigned) [Compound 77a]

>  <pKi>
6.00 to 7.00

$$$$
>  <compound>
CN(CC1CCN(CCOc2ccccc2F)CC1)C(c1ccc(Cl)cc1)c1ccccn1 (single isomer, unassigned) [Compound 72a]

>  <pKi>
6.00 to 7.00

$$$$
>  <compound>
Clc1ccc(C(c2ccccn2)N2CCC3(CCN(CCOc4ccccc4)CC3)C2)cc1 (stereo not drawn)

>  <pKi>
> 7.00

$$$$
>  <compound>
Clc1ccc(C(NCC2CCN(CCOc3ccccc3)CC2)c2ccccn2)cc1 (stereo not drawn) [Compound 114]

>  <pKi>
6.00 to 7.00

$$$$

In the following, a different compound is considered.
Query: Item under review: O=C(NC(c1ccc(F)cc1)c1ccccn1)C1CCN(CCOc2ccccc2Cl)CC1 (stereo not drawn) . Reported pKi?
Reply: 6.00 to 7.00

* * *

Assay: Microsomal stability, mouse
quantity-kind: Microsomal Stability: % remaining after 60 minutes

>  <compound>
COc1cccc(C(NCC2CCN(CCOc3ccccc3F)CC2)c2ccccn2)c1 (stereo not drawn)

>  <measurement>
m1%

$$$$
>  <compound>
O=C(NC(c1ccc(Cl)cc1)c1ccccn1)C1CCN(CCOc2cccnc2)CC1 (stereo not drawn)

>  <measurement>
44%

$$$$
>  <compound>
O=C(NC(c1ccc2c(c1)OCO2)c1ccccn1)C1CCN(CCOc2ccccc2F)CC1 (single isomer, unassigned) [Compound 95b]

>  <measurement>
m12%

$$$$

* * *

Test: Microsomal stability, human
Type: in vitro ADME
quantity-kind: Microsomal Stability: % remaining after 60 minutes (%)

Recorded results for 8 compounds are shown here.
>  <compound>
COc1cccc(C(NC(=O)C2CCN(CCOc3ccccc3)CC2)c2ccccc2)c1 (stereo not shown)

>  <measurement>
56

$$$$
>  <compound>
COc1cccc(C(NC(=O)C2CCN(CCOc3ccccc3)CC2)c2ccccn2)c1 (stereo not shown)

>  <measurement>
83

$$$$
>  <compound>
O=C(NC(c1ccc(Cl)cc1)c1ccccn1)C1CCN(CCOc2ccccc2Cl)CC1 (stereo not shown)

>  <measurement>
46

$$$$
>  <compound>
O=C(NC(c1cccc(F)c1)c1ccccn1)C1CCN(CCOc2ccccc2)CC1 (stereo not shown)

>  <measurement>
84

$$$$
>  <compound>
O=C(NC(c1ccc(Cl)cc1)c1ccccn1)C1CCN(CCOc2ccccc2)CC1 (stereo not shown)

>  <measurement>
58

$$$$
>  <compound>
O=C(NC(c1ccc(Cl)cc1)c1cccnc1)C1CCN(CCOc2ccccc2)CC1 (stereo not shown)

>  <measurement>
60

$$$$
>  <compound>
O=C(NC(c1ccncc1)c1ccc(Cl)cc1)C1CCN(CCOc2ccccc2)CC1 (stereo not shown)

>  <measurement>
52

$$$$
>  <compound>
O=C(NC(c1ccc(Cl)cc1)c1ccccn1)C1CCN(CCOc2ccccc2F)CC1 (stereo not shown)

>  <measurement>
64

$$$$

a. Clc1ccc(C(NCC2CCN(CCOc3ccccc3)CC2)c2ccccn2)cc1 (stereo not shown)
b. O=C(NC(c1ccc(F)cc1)c1ccccn1)C1CCN(CCOc2ccccc2)CC1 (stereo not shown)
Query: Consider a and b . Which of these has its Microsomal Stability: % remaining after 60 minutes at a higher number? Your choice should be expressed through its label.
Reply: b
(b: 93%, a: 63%)
